Assay: viability loss with induced miR-34 in A549 – imaging, A549 dox-inducible miR-34, nuclei and caspase counts, primary screen (AID 1347080); further: test concentration not given here
Conditions: A549 miR-34 inducible, Hoechst nuclei count, 48 h; measured here: total cells with miR-34 induction; stronger effect = lower value
Property Measured: cell count
Lab note: write the figure by itself, no unit.

Fill in reported cell count for this entry: `CCc1cc(C(C)=O)c(O)cc1OCCCCCC(C)(C)c1nn[nH]n1` 7060

Fill in reported cell count for this entry: `CCCCCCCCCCCCCCCC(=O)OC[C@@H](O)COP(=O)(O)O` 5760

Fill in reported cell count for this entry: OC1CCC(Nc2nc(-c3ccccc3)nc3[nH]ccc23)CC1 (configuration not stated) 8990

Fill in reported cell count for this entry: `CSc1nc(NC2CCCC2)c([N+](=O)[O-])c(NC2CCCC2)n1` 7100

Fill in reported cell count for this entry: `O=C(NCCN1CCCCC1)c1ccc(I)cc1` 9320

Fill in reported cell count for this entry: NC(C(=O)O)c1ccc(C(=O)O)c(C(=O)O)c1 (configuration not stated) 8080

Fill in reported cell count for this entry: `c1cn2cc(-c3ccc4cn[nH]c4c3)nc(Nc3ccc(N4CCOCC4)cc3)c2n1` 4570

Fill in reported cell count for this entry: c1ccc(Cn2c(-c3ccc(OCC(C4CCNCC4)n4c(-c5ccccc5)nc5ccccc54)cc3)nc3ccccc32)cc1 (configuration not stated) 5600

Fill in reported cell count for this entry: `CCOC(=O)C1=C[C@@H](OC(CC)CC)[C@H](NC(C)=O)[C@@H](N)C1` 9340

Fill in reported cell count for this entry: CCCCC[C@H](O)/C=C/[C@@H]1[C@H]2CC(CCCCC(=O)O)O[C@H]2C[C@H]1O (some centres not stated) 6700

Fill in reported cell count for this entry: `CS/C(N)=C(C#N)/C(C#N)=C(\N)SC` 8330

Fill in reported cell count for this entry: `Cc1ccc(-n2[nH]c(C)c(N=Nc3cccc(-c4cccc(C(=O)O)c4)c3O)c2=O)cc1C` 6690

Fill in reported cell count for this entry: `CCOc1ccn(-c2ccc(F)cc2)c(=O)c1C(=O)Nc1ccc(Oc2ccnc(N)c2Cl)c(F)c1` 5080

Fill in reported cell count for this entry: `O=C1O/C(=C/Br)CC[C@H]1c1cccc2ccccc12` 3970

Fill in reported cell count for this entry: `O=C1NCCc2[nH]c(-c3ccncc3)cc21` 2250

Fill in reported cell count for this entry: `Cn1c(N2CCCCS2(=O)=O)nc(C(=O)NCc2ccc(F)cc2)c(O)c1=O` 7350

Fill in reported cell count for this entry: `CCCCCCCC/C=C\CCCCCCCC(=O)NCCS(=O)(=O)O` 6150

Fill in reported cell count for this entry: `Clc1ccc(CCCOCCCN2CCCCC2)cc1` 7600

Fill in reported cell count for this entry: `CCCCCC(=O)CC[C@@H]1[C@@H](CCCCCCC(=O)O)[C@@H](O)C[C@H]1O` 6140

Fill in reported cell count for this entry: `N[C@@H](CCC(=O)N[C@@H](CSN=O)C(=O)NCC(=O)O)C(=O)O` 5550

Fill in reported cell count for this entry: `CC1(C)CCC(C)(C)c2cc(C3(c4ccc(C(=O)O)cc4)OCCO3)ccc21` 8580

Fill in reported cell count for this entry: `C[Se]CC[C@H](N)C(=O)O` 8780
